// provenance: patent US20040268437A1

Test system: Hot pepper (Variety: Pungcheon)
Assay: Soil treatment of hot pepper with inducers; serotonin derivative content in sarcocarps by HPLC
Assay type: in vivo
Experimental conditions: inducer 100 μM to soil, 300,000 L/ha, 20 days
Response key: label 1 means Content of serotonin derivatives: Coumaroyl Serotonin >= 100 ng/1 g sarcocarps; label 0 means Content of serotonin derivatives: Coumaroyl Serotonin < 100 ng/1 g sarcocarps.

Compound: COc1cc(/C=C/C(=O)O)ccc1O [Ferulic acid, ferulic acid]
Study target: Hot pepper (Variety: Pungcheon)
Group label: label 1
--
Compound: O=C(O)/C=C/c1ccc(O)cc1 [Coumaric acid, coumaric acid]
Study target: Hot pepper (Variety: Pungcheon)
Group label: label 1
--
Compound: O=C(O)C=Cc1ccccc1 [Cinnamic acid, cinnamic acid]
Study target: Hot pepper (Variety: Pungcheon)
Group label: label 1
--
Compound: NCCc1c[nH]c2ccccc12 [Tryptamine, tryptamine]
Study target: Hot pepper (Variety: Pungcheon)
Group label: label 0
--
Compound: O=C(O)/C=C/c1ccc(O)c(O)c1 [Caffeic acid, caffeic acid]
Study target: Hot pepper (Variety: Pungcheon)
Group label: label 1
--
Compound: NCCc1ccc(O)cc1 [Tyramine, tyramine]
Study target: Hot pepper (Variety: Pungcheon)
Group label: label 1

----------
Test system: Rice plants (Variety: Nakdong)
Assay: Soil treatment of rice with inducers; serotonin derivative content in seeds by HPLC
Assay type: in vivo
Experimental conditions: inducer 100 μM to soil, 300,000 L/ha, 20 days
Lab note: compare Content of serotonin derivatives: Coumaroyl Serotonin against 20 ng/1 g seed. Equal or greater, write class 1. Smaller, write class 0.

Compound: O=C(O)/C=C/c1ccc(O)cc1 [Coumaric acid, coumaric acid]
Group label: class 0
--
Compound: COc1cc(/C=C/C(=O)O)ccc1O [Ferulic acid, ferulic acid]
Group label: class 1
--
Compound: O=C(O)C=Cc1ccccc1 [Cinnamic acid, cinnamic acid]
Group label: class 1
--
Compound: NCCc1ccc(O)cc1 [Tyramine, tyramine]
Group label: class 0

----------
Test system: Hot pepper (Variety: Pungcheon)
Assay: Soil treatment of hot pepper with inducers; serotonin derivative content in sarcocarps by HPLC
Format: in vivo
Experimental conditions: inducer 100 μM to soil, 300,000 L/ha, 20 days
Readings of Content of serotonin derivatives: Feruloyl serotonin for the listed compounds
Quantity name: Content of serotonin derivatives: Feruloyl serotonin

Test smiles: NCCc1ccc(O)cc1
Study target: Hot pepper (Variety: Pungcheon)
Endpoint result: 210 ng/1 g sarcocarps
//
Test smiles: O=C(O)C=Cc1ccccc1
Study target: Hot pepper (Variety: Pungcheon)
Endpoint result: 276 ng/1 g sarcocarps
//
Test smiles: O=C(O)/C=C/c1ccc(O)cc1
Study target: Hot pepper (Variety: Pungcheon)
Endpoint result: 170 ng/1 g sarcocarps
//
Test smiles: COc1cc(/C=C/C(=O)O)ccc1O
Study target: Hot pepper (Variety: Pungcheon)
Endpoint result: 230 ng/1 g sarcocarps
//
Test smiles: O=C(O)/C=C/c1ccc(O)c(O)c1
Study target: Hot pepper (Variety: Pungcheon)
Endpoint result: 162 ng/1 g sarcocarps
//
Test smiles: NCCc1c[nH]c2ccccc12
Study target: Hot pepper (Variety: Pungcheon)
Endpoint result: 79 ng/1 g sarcocarps

----------
Test system: Rice plants (Variety: Nakdong)
Assay: Soil treatment of rice with inducers; serotonin derivative content in seeds by HPLC
Format: in vivo
Experimental conditions: inducer 100 μM to soil, 300,000 L/ha, 20 days
Please use TRUE for Content of serotonin derivatives: Feruloyl serotonin under 30 ng/1 g seed and FALSE for everything else, ties included.

Compound: O=C(O)C=Cc1ccccc1 [Cinnamic acid, cinnamic acid]
Group label: FALSE

Compound: NCCc1ccc(O)cc1 [Tyramine, tyramine]
Group label: FALSE

Compound: COc1cc(/C=C/C(=O)O)ccc1O [Ferulic acid, ferulic acid]
Group label: FALSE

Compound: O=C(O)/C=C/c1ccc(O)c(O)c1 [Caffeic acid, caffeic acid]
Group label: TRUE

Compound: O=C(O)/C=C/c1ccc(O)cc1 [Coumaric acid, coumaric acid]
Group label: TRUE

Compound: NCCc1c[nH]c2ccccc12 [Tryptamine, tryptamine]
Group label: TRUE
